- System: SR leukemia
- ASSAY_COMMENT: NCI-60 one-dose screen, 48 h
- ASSAY_SETUP: 10 µM unless noted
The panel holds about 83,000 compounds, 20% with a hit somewhere; the sample as a whole holds those more often. Activity calls are given as the source filed them. The calls were made as follows: active = growth percent below 10; inactive = the rest.
Permitted responses: 1 (yes) = active, 0 (no) = inactive

Query: Give the logged outcome of this assay for the following molecule: COc1ccc(NC(=S)NNc2ccc(-c3ccc(OC)c(OC)c3)nn2)cc1
Result: 0 (no)

Query: Can you look up the reported call for C=C(C)[C@@H]1CC[C@]2(C)[C@H](CC[C@@H]3[C@@H]([C@@](C)(O)CCC=C(C)C)CC[C@]32C)[C@@]1(C)CCC(=O)N1CCN(C)CC1 for me?
Result: 1 (yes)

Query: What call does the record list for CCCCCn1c(C)cc(/C=C\c2ccc3cc(C)ccc3[n+]2C)c1C ?
Result: 1 (yes)

Query: Answer briefly: the call reported for COc1ncc(-c2ccc3nc(N)n(-c4ccccc4C(F)(F)F)c(=O)c3c2)cc1S(=O)(=O)Nc1ccc(F)cc1F in this assay.
Result: 0 (no)

Query: Given C=C(C)[C@@H]1CC[C@]2(C(N)=O)CC[C@]3(C)[C@H](CC[C@@H]4[C@@]5(C)C/C(=C/c6cccnc6)[C@H](O)C(C)(C)[C@@H]5CC[C@]43C)[C@@H]12 , state the outcome it received in this test.
Result: 0 (no)

Query: What call does the record list for C=C(C)[C@@H]1CC[C@]2(C(=O)NCCCN)CC[C@]3(C)[C@H](CC[C@@H]4[C@@]5(C)CC[C@H](O)C(C)(C)[C@@H]5CC[C@]43C)[C@@H]12 ?
Result: 0 (no)

Query: # fetch the recorded call for CC(C)=CC/C=C(/C)[C@H]1CC[C@]2(C)[C@@H]1CC[C@@H]1[C@@]3(C)CCC(=O)NC(C)(C)[C@@H]3CC[C@]12C here
Result: 0 (no)

Query: Please state the recorded outcome for this molecule: COC(=O)C(=Cc1ccccc1[N+](=O)[O-])C(=O)OC
Result: 1 (yes)

Query: Fill in: this test's call for Cc1ccc(S(=O)(=O)Oc2ccc([N+](=O)[O-])cc2[N+](=O)[O-])cc1 is ___
Result: 0 (no)

Query: Recorded call for CCOC(=O)COc1c(C)cc(SSc2cc(C)c(OCC(=O)OCC)c(C)c2)cc1C ?
Result: 0 (no)

Query: Please let me know the test result on file for C#CCOc1ccc(C2=NN(CC3CC3)C3N=C(Cl)c4ncn(CC5CC5)c4N23)cc1OCC#C (configuration not stated) .
Result: 0 (no)

Query: What did this assay record as the result for Cc1cnc(N)nc1OCC(C)(C)CNC(=O)c1cccc(-c2ccc(S(=O)(=O)Nc3ccc4c(c3)N(C(=O)C3CC3)CCC4)cc2)c1 ?
Result: 0 (no)

Query: Hi, do you know how c1ccc(-c2nnc(-c3c[nH]c4ncccc34)s2)cc1 came out in this test?
Result: 0 (no)

Query: Hi, sorry to bother you, what did the test record for O=C1CC(c2ccc3c(c2)OCO3)Nc2ccccc21 (configuration not stated) ?
Result: 0 (no)

Query: Outcome? COc1c(C(C)=O)c(OCCCCOc2c(C(C)=O)c(OC)c3ccoc3c2OC)c(OC)c2occc12
Result: 0 (no)

Query: Give the logged outcome of this assay for the following molecule: COc1ccc2nc3ccccc3c(NCCNCCO)c2c1
Result: 1 (yes)

Query: Which result was noted for this molecule in the test: Cn1cc(-c2noc(-c3cn(C)c4ncc(F)cc34)n2)c2cc(Br)ccc21
Result: 0 (no)

###

- System: A498 renal
- ASSAY_COMMENT: NCI-60 one-dose screen, 48 h (100 = growth as untreated, 0 = no growth, -100 = all killed)
- ASSAY_SETUP: 10 µM unless noted
About 83,000 compounds went through this panel and 20% of them were active in at least one assay; those are over-represented in the sample as a whole.
Assign labels as follows, please: 1.0 for growth below 90%; 0.0 for growth equal to or exceeding 90%.

Query: Consider the molecule CCOC(=O)c1nc2c3ccccc3ccn2c1C(=O)OC . Is its growth strictly less than 90%?
Result: 1.0

Query: Criterion: growth strictly below 90%. Is it met by Cc1cccc([N+](=O)[O-])c1I ?
Result: 0.0

Query: Lab note: confirm whether the reported growth for this molecule is below 90%, equality not counting. molecule: CC1(C)OC2[C@@H](CNC(=O)NC(=O)NC(=O)CI)O[C@@H](n3cnc4c(NC(=O)Nc5ccccc5)ncnc43)[C@H]2O1 (stereo partly specified)
Result: 0.0

Query: Does O=C1Nc2ccccc2/C1=C/C(=O)c1ccc(N2CCCC2)cc1 have growth strictly under 90%?
Result: 1.0

Query: Is 90% strictly greater than the molecule's reported growth? molecule: O=C(N/N=C1\c2ccccc2-c2cccc(C(=O)O)c21)c1ccc(O)cc1
Result: 1.0

Query: Regarding O=C(O)c1cn(C2CC2)c2cc(N3CCN(Cc4cc(Cl)ccc4O)CC3)c(F)cc2c1=O , kindly confirm whether its growth is beneath 90%.
Result: 0.0

Query: Identify whether the molecule CCCCCN(CCCCC)CCCCCCCCN1CCCc2ccccc21 records growth below 90%.
Result: 0.0

Query: State whether 90% exceeds growth recorded for O=C(Nc1cccc(F)c1)c1cc(=O)[nH]c2cc(Br)ccc12 .
Result: 1.0

Query: Record O=C(CSc1nc2ccc([N+](=O)[O-])cc2[nH]1)Nc1ccc(F)c(Cl)c1 : is its growth strictly below 90%?
Result: 1.0

###

- Tested on: OVCAR-5 ovarian
- ASSAY_COMMENT: NCI-60 one-dose screen, 48 h
- ASSAY_SETUP: 10 µM unless noted
The panel holds about 83,000 compounds, 20% with a hit somewhere; the sample as a whole holds those more often. The source made the active and inactive calls. How the source made its calls: active means growth percent below 10; inactive means the rest.
Your answer must be one of the following: True = active, False = inactive

Query: Please share the test call associated with Cc1cc[n+](CCCCCCCCCC[n+]2ccc(C)cc2)cc1 .
Result: False

Query: Hi, sorry to bother you, what did the test record for O=C(NCc1ccc(Cn2c(=O)sn(-c3ccccc3)c2=O)cc1)OCc1ccc2c(Br)cc(Br)c(O)c2n1 ?
Result: True

Query: # fetch the recorded call for CCCCCn1sc(=O)n(Cc2ccc(CNC(=O)OCc3ccc4cccc(O)c4n3)cc2)c1=O here
Result: True

Query: Which outcome was entered for the molecule CCOC(=O)C(c1ccccc1)N1C(=O)c2ccccc2C1=O (configuration not stated) in this test?
Result: False

Query: For O=C(Nc1cccc(F)c1)c1cc(=O)[nH]c2cc(Br)ccc12 , which call appears in the assay record?
Result: False

Query: Just curious, what result did COc1cc2c(c(Br)c1N)-c1cc(Br)c(N)cc1C2=O get here?
Result: False

Query: Which outcome did this test record for the molecule C=C(C)[C@@H]1CC[C@]2(C(=O)OC)CC[C@]3(C)[C@H](CC[C@@H]4[C@@]5(C)CC/C(=N\OCCC(=NCCC#N)NOCCC#N)C(C)(C)[C@@H]5CC[C@]43C)[C@@H]12 ?
Result: False

Query: Answer briefly: the call reported for C=C(C)[C@@H]1CC[C@]2(C(N)=O)CC[C@]3(C)[C@H](CC[C@@H]4[C@@]5(C)C/C(=C/c6cccnc6)C(=O)C(C)(C)[C@@H]5CC[C@]43C)[C@@H]12 in this assay.
Result: True

Query: Name the outcome recorded for Nc1nnc(CSc2nnc3n(Cc4ccccc4)c(=O)c4c5c(sc4n23)CCCC5)s1 in the assay.
Result: False

Query: Called result for COC(=O)[C@@H](NC(=O)NC(=O)NC(=O)CI)C(C)C
Result: False

Query: // return assay outcome for C=CCCCCCCCCC(=O)OC(C)C
Result: False

Query: # lookup: test call for O=C(CCCSc1nc(-c2ccccc2)cc(-c2ccccc2)n1)NO
Result: True

Query: Write down the call the test reported for this molecule. Item: CNC(=O)c1cc(Oc2cccc3nc(NC(=O)Nc4cc(C(F)(F)F)cc(C(F)(F)F)c4)ccc23)ccn1
Result: False

Query: What did this assay record as the result for COC(=O)[C@]1(C)CC[C@]2(C)CC[C@]3(C)C(=CC(=O)[C@@H]4[C@@]5(C)CCC(=O)NC(C)(C)[C@@H]5CC[C@]43C)[C@@H]2C1 ?
Result: True

Query: Which outcome was assigned to C#C[C@]1(O)CC[C@H]2[C@@H]3CC=C4c5nc(N)sc5CC[C@]4(C)[C@H]3CC[C@@]21C in this test?
Result: False

Query: Recorded test call requested for C/C=C/C1OC23CCCCC2C(C#N)(C(=N)O3)C1(C#N)C#N (configuration not stated)
Result: False

Query: How did this test come out for CCCCC(CC)COC(=O)C[N+](C)(C)CCOC(c1ccccc1)c1ccccc1 (configuration not stated) ?
Result: False

Query: Dear all, I need the recorded test outcome for C=C(C)[C@@H]1CC[C@]2(C(=O)NCCNCCNC(=O)OC(C)(C)C)CC[C@]3(C)[C@H](CC[C@@H]4[C@@]5(C)CCC(=O)C(C)(C)[C@@H]5CC[C@]43C)[C@@H]12 , thank you.
Result: False

Query: Look up the recorded call for CCCOc1ccc(-c2nc(-c3ccc(N)cc3)cs2)cc1 in this test.
Result: False

Query: Kindly provide the recorded test outcome for the following molecule: COc1cc(C(=O)/C=C/c2c(-c3ccc(F)cc3)nc3sccn23)cc(OC)c1OC
Result: False

Query: Answer briefly: the call reported for CN(C)C(=S)Sc1ccc([N+](=O)[O-])cc1[N+](=O)[O-] in this assay.
Result: False

Query: Can you look up the reported call for CC1(C)[C@@H](NOCCCN)CC[C@]2(C)[C@H]3C(=O)C=C4[C@@H]5C[C@](C)(C(=O)O)CC[C@]5(C)CC[C@@]4(C)[C@]3(C)CC[C@@H]12 for me?
Result: True

Query: How did this test come out for C=C(C)C1CCC2(C(=O)O)CCC3(C)C(CCC4C5(C)CCC(OC(=O)NCc6ccccc6)C(C)(C)C5CCC43C)C12 (configuration not stated) ?
Result: False

Query: Short answer needed: outcome of this test for COc1ccc(/C=C2\N=C(Nc3ccccc3)N(NC(=O)c3ccccn3)C2=O)cc1 ?
Result: False

Query: Which outcome was assigned to CCOC(=O)c1ccc2nc(-c3c(C)nn(-c4ccccc4)c3N3CCOCC3)[nH]c2c1 in this test?
Result: False

Query: Called result for CC(C)C1=NOC(=O)C1=Cc1cn(-c2ccco2)nc1-c1ccccc1
Result: False

Query: What is the recorded call for this molecule in the test? CCOc1cc(/C=N\NC(=O)N/N=C/c2ccc(O)c(OCC)c2)ccc1O
Result: False

Query: Each molecule tested received a call. Report the one for CCOC(=O)C(C(C)=O)c1nc2sc3cc(Cl)c(Cl)cc3n2c(=O)c1C#N (configuration not stated) .
Result: False

Query: I'd appreciate the recorded outcome for CCn1cc(-c2ccnc(NCCNS(=O)(=O)c3ccc(Br)cc3)c2)c(-c2cccc(OC)c2)n1 from this test.
Result: False

Query: Please indicate how the test categorized CCOC(=O)c1nn(C2CCCCO2)c2ccc(NC(=O)CN3CCOCC3)cc12 (configuration not stated) .
Result: False

Query: Outcome logged for COc1ccc(C(=O)CCC(=O)O)cc1 in this assay:
Result: False

Query: Dear all, I need the recorded test outcome for CC1Cc2c(Cl)ncnc2N(C)c2ccccc21 (configuration not stated) , thank you.
Result: False

Query: I'd appreciate the recorded outcome for CCN(CCO)CCC(=O)c1ccc([N+](=O)[O-])cc1 from this test.
Result: False

Query: Fill in: this test's call for O=C(COc1cccc(/C=C2\Oc3ccccc3C2=O)c1)c1ccc([N+](=O)[O-])cc1 is ___
Result: False

Query: Identify the outcome logged in this assay for the molecule shown: FC(F)(F)c1ccc2c(c1)Sc1ccccc1N2
Result: False

Query: What was the test verdict on N#Cc1c(Cl)nc(SCC2CO2)nc1-c1ccccc1 (configuration not stated) ?
Result: False

Query: I'd appreciate the recorded outcome for C=C(C)[C@@H]1CC[C@]2(C(=O)O)CC[C@]3(C)[C@H](CC[C@@H]4[C@@]5(C)C/C(=C/c6ccco6)C(=O)C(C)(C)[C@@H]5CC[C@]43C)[C@@H]12 from this test.
Result: True

Source of measurements: PubChem BioAssay (NCI)
